Property: log10(IC50); scope: individual compounds
ASSAY SYSTEM: KDM5A (Homo sapiens, UniProt P29375)
Construct: Full length KDM5A enzyme was expressed and purified inhouse; made in house
Sequence (P29375 whole entry): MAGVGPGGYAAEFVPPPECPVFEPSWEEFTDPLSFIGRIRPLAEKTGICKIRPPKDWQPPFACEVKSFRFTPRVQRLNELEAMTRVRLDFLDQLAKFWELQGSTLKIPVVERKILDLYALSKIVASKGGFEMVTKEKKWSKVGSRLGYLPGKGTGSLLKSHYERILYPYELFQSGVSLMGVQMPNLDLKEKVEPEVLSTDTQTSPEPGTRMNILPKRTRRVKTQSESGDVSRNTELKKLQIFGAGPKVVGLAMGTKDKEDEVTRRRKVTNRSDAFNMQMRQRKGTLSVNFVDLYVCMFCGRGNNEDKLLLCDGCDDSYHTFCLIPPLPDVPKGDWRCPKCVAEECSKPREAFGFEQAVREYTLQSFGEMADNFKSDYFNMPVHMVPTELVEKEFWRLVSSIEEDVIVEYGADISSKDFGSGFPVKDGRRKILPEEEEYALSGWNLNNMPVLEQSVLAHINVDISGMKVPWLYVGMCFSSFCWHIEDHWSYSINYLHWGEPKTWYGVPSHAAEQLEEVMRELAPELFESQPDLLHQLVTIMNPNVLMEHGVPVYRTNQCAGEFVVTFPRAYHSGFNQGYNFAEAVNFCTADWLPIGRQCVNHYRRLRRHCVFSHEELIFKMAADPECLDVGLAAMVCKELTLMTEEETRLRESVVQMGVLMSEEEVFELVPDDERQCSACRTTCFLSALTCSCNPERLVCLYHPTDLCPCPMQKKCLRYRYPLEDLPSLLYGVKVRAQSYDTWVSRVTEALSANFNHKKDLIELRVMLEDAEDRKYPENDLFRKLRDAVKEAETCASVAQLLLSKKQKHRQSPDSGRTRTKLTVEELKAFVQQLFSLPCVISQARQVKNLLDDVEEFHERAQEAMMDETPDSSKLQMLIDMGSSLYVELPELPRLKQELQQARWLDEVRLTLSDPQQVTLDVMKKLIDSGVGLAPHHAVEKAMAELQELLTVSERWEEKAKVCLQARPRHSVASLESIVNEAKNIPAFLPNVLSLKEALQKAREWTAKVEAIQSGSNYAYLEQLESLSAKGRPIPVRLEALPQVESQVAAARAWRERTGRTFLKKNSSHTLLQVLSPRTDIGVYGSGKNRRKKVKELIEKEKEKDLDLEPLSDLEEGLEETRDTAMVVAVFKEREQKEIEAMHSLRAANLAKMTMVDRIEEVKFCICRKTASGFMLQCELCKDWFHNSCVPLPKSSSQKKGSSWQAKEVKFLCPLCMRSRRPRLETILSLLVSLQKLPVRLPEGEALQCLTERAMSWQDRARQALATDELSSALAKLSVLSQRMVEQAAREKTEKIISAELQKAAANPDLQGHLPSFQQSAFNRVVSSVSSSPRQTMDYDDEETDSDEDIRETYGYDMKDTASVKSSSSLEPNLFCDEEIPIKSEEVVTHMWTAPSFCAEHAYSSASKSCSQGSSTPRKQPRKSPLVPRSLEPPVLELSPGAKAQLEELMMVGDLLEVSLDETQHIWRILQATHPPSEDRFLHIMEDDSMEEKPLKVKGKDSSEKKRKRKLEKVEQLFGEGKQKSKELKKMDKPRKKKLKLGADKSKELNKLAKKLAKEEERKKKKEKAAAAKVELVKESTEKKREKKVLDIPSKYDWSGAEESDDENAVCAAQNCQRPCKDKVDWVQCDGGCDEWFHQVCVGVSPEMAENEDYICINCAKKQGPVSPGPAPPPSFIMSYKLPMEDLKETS
ASSAY EXPLANATION: KDM5 enzyme assay, KDM5A HTRF (Example 463)
Format: biochemical
SETUP CONDITIONS: compounds of Examples 1-432; read-out: Example 463 Assay KDM5A HTRF IC50
Use the decimal logarithm of IC50 (nM).

Sample answers from the record:
COMPOUND	READOUT NAME	RECORDED VALUE
CC(=O)NCCCCc1c(-c2ccccc2)[nH]c2c(C#N)cnn2c1=O	log10(IC50)	3.76
CC(C)c1c(-c2cnn(Cc3ccccc3-c3ccccc3)c2)[nH]c2c(C#N)cnn2c1=O	log10(IC50)	0.90
CCCn1cc(-c2[nH]c3c(C#N)cnn3c(=O)c2C(C)C)cn1	log10(IC50)	1.26
CC(C)c1c(-c2ccc(C(F)(F)F)nc2)[nH]c2c(C#N)cnn2c1=O	log10(IC50)	1.72
CC(C)c1c(CCc2ccccc2)[nH]c2c(C#N)cnn2c1=O	log10(IC50)	0.99
CC(C)Cn1cc(-c2[nH]c3c(C#N)cnn3c(=O)c2C(C)C)cn1	log10(IC50)	1.18
CC(C)c1c(-c2cnn(C3(C)CC3)c2)[nH]c2c(C#N)cnn2c1=O	log10(IC50)	1.48
CC(C)c1c(-c2cnn(Cc3ccncc3)c2)[nH]c2c(C#N)cnn2c1=O	log10(IC50)	0.90
CC(C)c1c(-c2cnn(C(C)c3ccccc3)c2)[nH]c2c(C#N)cnn2c1=O (stereo not drawn)	log10(IC50)	0.90
CC(C)c1c(-c2ccn[nH]2)[nH]c2c(C#N)cnn2c1=O	log10(IC50)	0.83

Endpoint output: log10(IC50) of CC(C)c1c(-c2ccc(S(C)(=O)=O)cc2)[nH]c2c(C#N)cnn2c1=O . Value?
1.30

Another compound: CC(C)c1c(-c2ccc3c(c2)OC(F)(F)O3)[nH]c2c(C#N)cnn2c1=O
1.28

Also, CC(C)c1c(-c2ccc(C#N)cc2)n(C)c2c(C#N)cnn2c1=O please.
1.75

Also check CC(C)c1c(-c2cnn(CC(F)F)c2)[nH]c2c(C#N)cnn2c1=O
1.15

What do we get for CC(C)c1c(-c2cc(F)cc(F)c2)[nH]c2c(C#N)cnn2c1=O ?
1.28

Follow-up entry: CC(C)c1ccc(-c2[nH]c3c(C#N)cnn3c(=O)c2C(C)C)o1
1.04

Same for CCc1c(-c2cccc(I)c2)[nH]c2c(C#N)cnn2c1=O
0.85

Another compound to look at: C=CC(C)c1c(-c2ccccc2)[nH]c2c(C#N)cnn2c1=O (stereo not drawn)
1.26

// data source = patent US10035801B2
